Attribution: ChEMBL document CHEMBL3352519

systemTested: Group 10 secretory phospholipase A2 (Homo sapiens)
assayDetails: Binding affinity to sPLA2X (unknown origin) by NMR spectroscopy based displacement assay
measurementParameters: concentration not given here
So I've got a bunch of compounds here, and I need their inhibition values.
Your answer should be a plain number; it is taken to be in %.

Exercise: Requested read-out: inhibition. Entry: O=C(O)c1csc(-c2ccc3c(c2)CCO3)n1
Key: 80

Exercise: Requested read-out: inhibition. Entry: Oc1nc(-c2ccccc2)c(-c2ccccc2)[nH]1
Key: 88

Exercise: Requested read-out: inhibition. Entry: O=C(O)c1ccc(-n2ncc3ccccc3c2=O)cc1
Key: 76

Exercise: Requested read-out: inhibition. Entry: Cc1cc(-c2cc(C(N)=O)n[nH]2)c(C)s1
Key: 57
